Where do the numbers come from? From patent US7074789B2.

molecular target: Kdr (Homo sapiens, UniProt P35968); construct: Kinases are expressed as either kinase domains or full length constructs; made in house; experiment: Kinase inhibition assay (33P transfer), Kdr; assay type: biochemical; conditions: Table 3, class symbols; read-out: KDR-1
Sequence (P35968 20-1356, species assumed): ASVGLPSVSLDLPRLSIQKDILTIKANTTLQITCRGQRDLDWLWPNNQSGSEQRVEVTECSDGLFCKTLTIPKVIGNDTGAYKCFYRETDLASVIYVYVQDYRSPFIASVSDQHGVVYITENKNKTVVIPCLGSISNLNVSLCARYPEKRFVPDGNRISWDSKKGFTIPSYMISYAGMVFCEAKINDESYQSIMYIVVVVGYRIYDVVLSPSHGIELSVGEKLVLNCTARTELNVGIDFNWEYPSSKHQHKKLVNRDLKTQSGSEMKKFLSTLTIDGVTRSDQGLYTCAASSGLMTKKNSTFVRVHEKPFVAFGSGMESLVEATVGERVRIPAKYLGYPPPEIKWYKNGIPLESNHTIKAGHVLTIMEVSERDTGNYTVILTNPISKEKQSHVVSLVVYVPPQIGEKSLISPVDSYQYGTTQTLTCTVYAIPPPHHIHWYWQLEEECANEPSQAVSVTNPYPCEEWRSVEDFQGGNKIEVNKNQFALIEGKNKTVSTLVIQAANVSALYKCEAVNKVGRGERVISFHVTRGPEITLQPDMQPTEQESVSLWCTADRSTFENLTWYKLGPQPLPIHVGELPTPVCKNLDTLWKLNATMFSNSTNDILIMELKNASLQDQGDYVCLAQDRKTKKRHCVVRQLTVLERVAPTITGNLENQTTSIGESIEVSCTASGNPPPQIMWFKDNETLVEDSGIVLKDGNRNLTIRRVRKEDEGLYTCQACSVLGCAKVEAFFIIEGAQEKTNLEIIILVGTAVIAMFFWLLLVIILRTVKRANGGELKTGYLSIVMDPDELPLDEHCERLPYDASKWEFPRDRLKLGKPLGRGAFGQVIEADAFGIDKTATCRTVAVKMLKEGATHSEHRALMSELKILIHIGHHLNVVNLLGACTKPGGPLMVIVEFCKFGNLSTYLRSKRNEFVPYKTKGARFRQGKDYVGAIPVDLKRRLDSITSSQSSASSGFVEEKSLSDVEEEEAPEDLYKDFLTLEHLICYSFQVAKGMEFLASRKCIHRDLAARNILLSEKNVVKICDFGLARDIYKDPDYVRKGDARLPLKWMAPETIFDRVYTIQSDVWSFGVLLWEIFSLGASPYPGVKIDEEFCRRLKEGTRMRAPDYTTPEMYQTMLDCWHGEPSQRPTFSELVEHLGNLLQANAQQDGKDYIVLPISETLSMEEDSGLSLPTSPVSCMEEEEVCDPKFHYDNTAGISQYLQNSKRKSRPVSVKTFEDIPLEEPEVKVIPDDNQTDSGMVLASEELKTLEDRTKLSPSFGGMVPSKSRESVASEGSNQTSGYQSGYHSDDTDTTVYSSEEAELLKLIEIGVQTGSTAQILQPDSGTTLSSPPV
pIC50: −log10 of the molar value.
Give measured pIC50 for each item. Keep answers brief.

Given O=C(O)Cc1cccc(Nc2ncnc(Nc3ccc(Cl)cc3F)n2)c1 [Compound 968] , respond with its pIC50. > 5.97

Return reported pIC50. Input compound: COC(=O)c1ccc(-c2cc(Nc3ncnc(Nc4cc(Cl)cc(Cl)c4)n3)[nH]n2)cc1 [Compound 811] < 5.01

Using the record for Cc1ccc2c(c1)CCCN2c1ncnc(Nc2ccc(F)c(F)c2)n1 [Compound 893] , state its measured pIC50. < 4.90

Look up and state reported pIC50 for COc1ccc(Nc2ncnc(N(C)c3ccc4c(cnn4Cc4ccccc4)c3)n2)cc1OC [Compound 669] 5.29 to 6.07

Determine its reported pIC50: COc1ccc(Nc2ncnc(Nc3ccc(N4CCCCC4)cc3)n2)cc1OC [Compound 899] 5.23 to 6.01

Give recorded pIC50. COc1ccc(Nc2ncnc(Nc3ccc4c(c3)C(=O)N(C)C4=O)n2)cc1OC [Compound 856] < 4.96

Name the recorded pIC50 of the item Cc1ccc(-c2cc(Nc3ncnc(Nc4cc(C)ccc4C)n3)[nH]n2)cc1 [Compound 1125] in your answer. 5.19 to 5.97

Supply pIC50 value. Item: COc1ccc(CCNc2ncnc(Nc3cc(-c4ccco4)[nH]n3)n2)cc1OC [Compound 823] 5.23 to 6.01

Annotate the compound Fc1ccc(CNc2ncccc2-c2ncnc(Nc3ccc(N4CCOCC4)cc3)n2)cc1 [Compound 1106] with its measured pIC50. 5.28 to 6.06

Note pIC50 for the compound shown: CN(c1ccc2c(cnn2Cc2ccccc2)c1)c1ncnc(Nc2cccc(Cn3ccnn3)c2)n1 [Compound 677] > 6.09

Give the reported pIC50 for this compound. COc1ccc(CNc2ncnc(Nc3cc(-c4ccco4)n[nH]3)n2)cc1 [Compound 994] < 4.91

Kindly indicate its recorded pIC50. Item: CN(c1cccc(Br)c1)c1ncnc(Nc2cccc(Cc3nnn[nH]3)c2)n1 [Compound 670] 5.26 to 6.04

# return recorded pIC50 for input NC(=O)Cc1cccc(Nc2ncnc(Nc3cccc(Br)c3)n2)c1 [Compound 966] 5.22 to 6.00

Determine its reported pIC50: COC(=O)c1ccc(-c2cc(Nc3ncnc(NCc4cccs4)n3)[nH]n2)cc1 [Compound 877] < 4.96

In one line, give reported pIC50 of the entry COc1cc(Nc2ncnc(-c3cccnc3Nc3cccc(C(C)=O)c3)n2)cc(OC)c1OC [Compound 831] . < 5.02

Report pIC50, nothing else, for this compound: O=C(O)Cc1cccc(Nc2ncnc(-c3cccnc3NCc3ccc(F)cc3)n2)c1 [Compound 1100] > 6.03

Output pIC50 of COc1cc(Nc2ncnc(-c3cccnc3NCC(C)c3ccccc3)n2)cc(OC)c1OC (stereo not drawn) [Compound 890] 5.02 to 5.13

Query pIC50 for COC(=O)c1ccc(-c2cc(Nc3ncnc(NCc4ccco4)n3)[nH]n2)cc1 [Compound 805] < 4.94

Read the entry CC(C)Nc1ncccc1-c1ncnc(Nc2cccc(CC(=O)O)c2)n1 [Compound 1097] and write its reported pIC50. 5.18 to 5.96

Return the recorded pIC50 value; entry: CCOc1cccc(Nc2ncnc(Nc3cc(-c4ccc(C(=O)OC)cc4)n[nH]3)n2)c1 [Compound 812] 4.98 to 5.09

Specify measured pIC50 for NC(=O)Cc1cccc(Nc2ncnc(-n3c(NCc4ccccc4)nc4ccccc43)n2)c1 [Compound 967] . > 6.05

Specify measured pIC50 for FC(F)(F)Oc1cccc(Nc2ncnc(Nc3ccc4c(cnn4Cc4ccccc4)c3)n2)c1 [Compound 907] . < 5.03

Fill in pIC50 for record O=C(O)/C=C/c1ccc(Nc2ncnc(Nc3cc(-c4ccco4)[nH]n3)n2)cc1 [Compound 886] > 5.99

Dear colleague, please send me the reported pIC50 for COc1cc(Nc2ncnc(-c3cccnc3NCc3ccccc3OC(F)(F)F)n2)cc(OC)c1OC [Compound 842] when you can. 5.34 to 6.12

Please report pIC50 for the following compound: COc1ccc(N(C)c2ncnc(Nc3ccc(OC)c(OC)c3)n2)cc1 [Compound 863] 5.18 to 5.96

Give me measured pIC50, please, for this compound: COc1cccc(CCNc2ncnc(Nc3ccc4c(cnn4Cc4ccccc4)c3)n2)c1OC [Compound 873] < 5.03

Answer with the recorded pIC50 for the compound listed here: Fc1ccc(CNc2ncccc2-c2ncnc(Nc3cccc(Cn4ccnc4)c3)n2)cc1 [Compound 1109] > 6.05

Input COC(=O)c1ccc(-c2cc(Nc3ncnc(NCCc4c[nH]c5ccccc45)n3)[nH]n2)cc1 [Compound 806] , output reported pIC50. 5.28 to 6.06

Entry COc1cc(Nc2ncnc(-c3cccnc3NCc3cccc4ccccc34)n2)cc(OC)c1OC [Compound 844] needs its pIC50 filled in; supply it. > 6.09

Recall and state the measured pIC50 for Cc1ccc2c(c1)CCCN2c1ncnc(Nc2cccc(Cc3nnn[nH]3)c2)n1 [Compound 635] . > 6.00

Given the compound COc1ccc(Nc2ncnc(N(C)c3ccc([N+](=O)[O-])cc3)n2)cc1OC [Compound 862] , write its reported pIC50. < 4.93

Name the recorded pIC50 of the item COC(=O)c1ccc(N(C)c2ncnc(Nc3ccc(OC)c(OC)c3)n2)cc1 [Compound 864] in your answer. 5.22 to 5.99

Supply reported pIC50 belonging to this compound: COc1cc(Nc2ncnc(-c3cccnc3Nc3ccccc3)n2)ccc1NC(=O)CCCN1CCNCC1 [Compound 1093] > 6.13
